Ref: patent US20230265187A1

# tgt: T1, his-tagged human TIGIT (Acro Biosystems #TIT-H52H3) (human, UniProt Q495A1 22-141)
# T1 construct: Bought protein; also called His-tagged-TIGIT (human); not shown: his tag
# T1 sequence (looked up): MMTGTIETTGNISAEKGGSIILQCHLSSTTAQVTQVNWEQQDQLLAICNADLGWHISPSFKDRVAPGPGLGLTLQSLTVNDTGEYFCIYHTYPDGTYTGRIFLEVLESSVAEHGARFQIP
# protocolNotes: ELISA, coated His-TIGIT, 1 ug/ml
quantityKind: Elisa OD450 (OD450)
Kindly provide the numeric value in OD450 only, without the unit symbol.

Consider the worked cases shown below.
>  <binder>
43352p1.H8 (scFv, V domains shown) VH: DVQLVESGGGVVRPGESLRLSCAASGFNFSTYAMNWVRQAPGEGLEWVSGISGRSSGDTTYYADSVRGWFTVSRDNSKNTLYLQMSSLRAEDTAVYYCARETWIRGYFDYWGLGTLVTVSS VL: QSVLTQPPSASGTPGQRVTISCSGSRSNLGNNLVYWYQQLPGTAPKLLIYFNNERPSGVPDRFSGSKSGTSASLAISGVQSEDEADYYCATWDDSLNGWVFGGGTKLTVL

>  <quantitativeReadout>
1.8

$$$$
>  <binder>
43586p2.F10 (scFv, V domains shown) VH: VESGGGLVQPGGSLRLSCAASGFTVSDHYVSWVRQAPGKGLEWVSTSSSTNWNDGRTYYADSVKGRFTISRDNSENTLYLQMNSLRAEDTAVYYCAKDQYKGNDYYYYGMDVWGQGTTVTVSS VL: QSVLTQPPSASGTPGQRVTISCSASNSYIGTKYFYWYQQLPGTAPKLLIYLDSQRPSGVPDRFSGSKSGTSVSLAISGLQSEDEADYYCAFWDDHLHGWVFGGGTKLTVL

>  <quantitativeReadout>
1.75

$$$$
>  <binder>
43586p1.2.B8 (scFv, V domains shown) VH: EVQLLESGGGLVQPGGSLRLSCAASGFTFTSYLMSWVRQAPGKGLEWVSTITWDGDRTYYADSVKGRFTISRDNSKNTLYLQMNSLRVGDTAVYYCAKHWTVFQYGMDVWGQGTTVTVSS VL: QSVLTQPASASGTPGQRVTITCSGTISNIETKYVSWYQQLPGTAPKLLIYGNHQRPSGVPDRFSGSKSGTSASLAISGLQSEDEADYYCASWENDLKSWVFGGGTKLTVL

>  <quantitativeReadout>
2.1

$$$$
>  <binder>
43645p1.D3 (scFv, V domains shown) VH: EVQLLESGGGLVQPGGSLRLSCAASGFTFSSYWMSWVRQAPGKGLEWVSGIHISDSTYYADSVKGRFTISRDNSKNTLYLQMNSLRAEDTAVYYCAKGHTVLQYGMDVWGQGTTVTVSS VL: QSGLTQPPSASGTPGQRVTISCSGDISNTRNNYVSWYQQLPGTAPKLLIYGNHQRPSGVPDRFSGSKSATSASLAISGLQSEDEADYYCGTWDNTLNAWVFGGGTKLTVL

>  <quantitativeReadout>
2.13

$$$$

Now for another entry.
IN: Name the recorded Elisa OD450 for 43586p1.2.B2 (scFv, V domains shown) VH: EMQLLESGGGLVQPGGSLRLSCAASGFTFDDYVMSWVRQAPGKGLEWVSLINWNGDKTYYADSVKGRFTISRDNSKNTLYLQMNSLRAEDTAIYYCAKHWIVFQYGMDVWGQGTTVTVSS VL: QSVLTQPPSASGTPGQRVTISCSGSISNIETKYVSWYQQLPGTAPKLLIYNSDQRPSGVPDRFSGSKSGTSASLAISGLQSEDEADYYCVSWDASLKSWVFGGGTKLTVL .
OUT: 2.06
